targetSystem: SETD2(1434-1711) (Homo sapiens)
Construct: SETD2 (1434-1711) Assay; catalogue N/A
Sequence (Q9BYW2 1434-1711): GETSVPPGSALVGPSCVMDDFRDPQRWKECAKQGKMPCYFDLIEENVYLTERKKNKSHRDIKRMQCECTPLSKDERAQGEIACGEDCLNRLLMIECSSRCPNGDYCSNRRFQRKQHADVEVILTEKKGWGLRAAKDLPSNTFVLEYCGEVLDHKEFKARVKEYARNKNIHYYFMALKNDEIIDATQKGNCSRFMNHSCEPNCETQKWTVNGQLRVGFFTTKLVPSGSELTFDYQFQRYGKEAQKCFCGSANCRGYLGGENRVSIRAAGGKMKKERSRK
experimentDescription: SETD2 (1434-1711) assay
Type: biochemical
studyConditions: read-out: SETD2 (1434-1711)
propertyLabel: pIC50
The meaning of pIC50 here: minus log10 of the concentration in molar units.

Consider the reported pIC50 for these molecules:
molecule: Cc1cc(C(=O)N[C@H]2CC[C@@H]2N)cnc1C(NC(=O)c1cc2cccc(C)c2[nH]1)C1CC1 (stereo partly shown)
endpointValue: 4.77

molecule: Cc1ccc(F)c2cc(C(=O)Nc3cccc(CN4CCN(C)CC4)c3)[nH]c12
endpointValue: 6.40

molecule: Cc1ccc(F)c2cc(C(=O)Nc3cccc(CCN4CCN(C)CC4)c3)[nH]c12
endpointValue: 7.10

Data request: Entry Cc1ccc(F)c2cc(C(=O)NC3CCCc4cccnc43)[nH]c12 (stereo not shown) : reported pIC50 = ?
Data returned: 5.03
